Reference source: patent US9504675B2

System: recombinant rat FAAH (rFAAH) (Rattus norvegicus, UniProt P97612)
Construct: The truncated rat FAAH (rFAAH) was expressed in E. coli and purified; made in house; host or cells: Escherichia coli
Sequence (P97612 30-579 limits assumed): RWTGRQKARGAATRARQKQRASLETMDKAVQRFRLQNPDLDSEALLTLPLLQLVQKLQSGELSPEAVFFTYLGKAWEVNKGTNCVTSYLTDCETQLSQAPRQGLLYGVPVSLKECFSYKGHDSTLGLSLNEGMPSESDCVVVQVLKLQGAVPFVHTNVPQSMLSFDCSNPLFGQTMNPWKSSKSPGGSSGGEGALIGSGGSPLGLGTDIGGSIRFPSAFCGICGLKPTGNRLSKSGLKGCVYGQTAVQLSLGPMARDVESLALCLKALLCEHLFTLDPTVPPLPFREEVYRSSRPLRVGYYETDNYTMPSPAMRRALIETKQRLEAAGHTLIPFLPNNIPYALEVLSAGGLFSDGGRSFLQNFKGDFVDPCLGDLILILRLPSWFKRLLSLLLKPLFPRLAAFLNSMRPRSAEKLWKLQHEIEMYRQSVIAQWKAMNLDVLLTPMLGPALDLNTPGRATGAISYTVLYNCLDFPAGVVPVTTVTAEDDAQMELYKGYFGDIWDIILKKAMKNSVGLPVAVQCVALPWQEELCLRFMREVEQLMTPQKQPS
Assay protocol: Enzyme assay: inhibition of purified recombinant rat FAAH, 14C-oleamide hydrolysis, Ki by Dixon plot
Format: biochemical
Condition parameters: Table 3, racemate (enantiomers not separable), indane C2 acyl side chain; read-out: Ki
pKi: −log10 of the molar value.

# Compound, pKi
data = [
    ("O=C(c1ncco1)C1Cc2ccc(OCc3ccccc3)cc2C1 (racemic)", 7.62),
]
